Taken from patent US20110236969A1.

Molecular target: T1, human CD30 (commercial), conjugated to digoxigenin (human) (UniProt P28908)
T1 sequence (conjugated to digoxigenin (DIG), looked up): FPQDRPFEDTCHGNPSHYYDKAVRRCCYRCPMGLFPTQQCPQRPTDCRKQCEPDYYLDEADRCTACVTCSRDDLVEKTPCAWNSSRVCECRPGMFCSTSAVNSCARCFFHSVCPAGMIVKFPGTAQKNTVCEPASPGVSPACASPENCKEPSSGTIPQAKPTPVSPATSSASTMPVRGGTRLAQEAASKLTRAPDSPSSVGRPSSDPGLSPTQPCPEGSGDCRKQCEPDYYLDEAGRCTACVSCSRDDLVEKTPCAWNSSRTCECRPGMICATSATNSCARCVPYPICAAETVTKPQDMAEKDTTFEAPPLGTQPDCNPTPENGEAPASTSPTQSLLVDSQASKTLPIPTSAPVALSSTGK
Test: AlphaScreen competition with biotin-WT AC10
assay_endpoint: IC50 (nM)
Could you give me the number in nM? Just the number is fine.

binder: AC10 H2L2 (H2 AC10 VH, L2 AC10 VL) (antibody, from a related filing, IgG1, V domains shown) VH: QIQLVESGGGLVKPGGSLRLSCAASGYTFTDYYITWVRQAPGQGLEWMGWIYPGSGNTKYNEKFQGRVTMTVDTSTSTAYMELSSLRSEDTAVYFCANYGNYWFAYWGQGTLVTVSS VL: DIVLTQSPSSLSASVGDRVTITCRASQSVDFDGDSYMNWYQQKPGQPPKVLIYAASNLESGIPARFSGSGSGTDFTLTISSLQPEDFATYYCQQSNEDPWTFGGGTKVEIK
assay_endpoint: IC50
numeric_result: 49.2

binder: AC10 H3L3 (H3 AC10 VH, L3 AC10 VL) (antibody, from a related filing, IgG1, V domains shown) VH: QIQLVQSGPEVKKPGASVKVSCKASGYTFTDYYITWVRQAPGQGLEWMGWIYPGSGNTKYNEKFQGRFVFSVDTSASTAYLQISSLKAEDTAVYFCANYGNYWFAYWGQGTLVTVSS VL: DIVLTQSPDSLAVSLGERATINCKASQSVDFDGDSYMNWYQQKPGQPPKVLIYAASNLESGIPARFSGSGSGTDFTLTINSLEAEDAATYYCQQSNEDPWTFGGGTKVEIK
assay_endpoint: IC50
numeric_result: 1.99

Next:
Report IC50 for AC10 H1L3 (H1 AC10 VH, L3 AC10 VL) (antibody, from a related filing, IgG1, V domains shown) VH: QIQLVQSGPEVKKPGASVKVSCKASGYTFTDYYITWVRQAPGQGLEWMGWIYPGSGNTKYNEKFQGRVTITVDTSASTAYMELSSLRSEDTAVYFCANYGNYWFAYWGQGTLVTVSS VL: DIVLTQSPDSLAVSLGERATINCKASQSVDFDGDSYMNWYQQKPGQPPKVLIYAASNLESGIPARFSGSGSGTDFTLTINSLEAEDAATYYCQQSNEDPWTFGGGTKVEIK
17.4
